Data provenance: paper PMC4829596

Tested on: human intestinal epithelial (Caco2) cells
Test: Cytotoxicity assay, lactate dehydrogenase release
Assay type: cell-based
Conditions: compound 2mg/ml, 24 h, LDH
List of % of living Caco2 cells values.
Field format: number, assumed %, no unit text.

molecule=O=C(O)c1c[nH]c2ccccc12 unit_label=% test_value=8.36

Lab note: measured % of living Caco2 cells of O=C(O)C(O)Cc1ccccc1 (stereo not drawn) was 19.65

###

Test system: S. aureus
Test: Determination of MIC
Format: cell-based, Staphylococcus aureus
Details: Staphylococcus aureus; S. aureus; read-out: MIC
Recorded MIC values for a group of compounds are listed next.
Form entry: value (µg/mL) — number only.

Field: example entries. Status: answers known.
compound="O=C(O)C(O)Cc1ccccc1 (stereo not shown)" readout=MIC test_value=2000
compound="O=Cc1ccc(O)cc1 [4FP, p-hydroxybenzaldehyde]" readout=MIC test_value=2000
compound=O=C(O)c1c[nH]c2ccccc12 readout=MIC test_value=2000

In plain terms, O=C(O)Cc1c[nH]c2ccccc12 has a documented MIC of 400
